# Tested on: Veronica persica (VERPE)
# measurement_protocol: Herbicidal pre-emergence action (A), 1280 g/ha
# Type: in vivo
# test_parameters: visual grading after ca. 3 weeks vs untreated controls
quantity_name: herbicidal effect VERPE (%)
Provide only the numeric value, understood in %.

Report herbicidal effect VERPE for N#CCc1nc2nc(-c3ccccc3F)c(Br)cc2s1 please.
90

What herbicidal effect VERPE value was documented for this molecule, Cc1cc2sc([S+](C)[O-])nc2nc1-c1ccccc1Cl (stereo not drawn) ?
90

# get_value(readout='herbicidal effect VERPE', item= CCc1cc2scnc2nc1-c1ccccc1F )
100

Entry under review: CCc1cc2scnc2nc1-c1ccccc1 . Reported herbicidal effect VERPE?
90

Item CC(C)c1cc2scnc2nc1-c1ccccc1F has what recorded herbicidal effect VERPE?
90

Find the recorded herbicidal effect VERPE belonging to Cc1cc2scnc2nc1C12CCCCC1O2 (stereo not drawn) and report it.
90

Record request: herbicidal effect VERPE value, item Cc1ccsc1-c1nc2ncsc2cc1Br
100

What measured herbicidal effect VERPE goes with Cc1cc2scnc2nc1-c1ccc(F)cc1F ?
100

What does the data say about its herbicidal effect VERPE? Entry: Cc1cc2sc([S+](C)[O-])nc2nc1-c1ccccc1 (stereo not drawn)
90

Quick one: herbicidal effect VERPE for CCc1cc2scnc2nc1-c1ccccc1C(F)(F)F ?
100

Any idea what herbicidal effect VERPE was measured for Cc1cc2scnc2nc1-c1sc(Br)cc1C ?
90

herbicidal effect VERPE lookup needed for CCc1cc2sc(S)nc2nc1-c1ccccc1F , thanks.
90

If you can, please state the reported herbicidal effect VERPE value of CSc1nc2nc(-c3ccccc3C)c(C)cc2s1 .
100

Please give the measured herbicidal effect VERPE for this molecule: Cc1cc2scnc2nc1-c1ccccc1C(F)(F)F
90

Can you share its herbicidal effect VERPE? I mean this molecule: Cc1cc2scnc2nc1-c1ccccc1Cl
100

For the molecule shown here, Cc1cc2sc(S(C)(=O)=O)nc2nc1-c1ccccc1F , give the reported herbicidal effect VERPE.
90

Give the measured herbicidal effect VERPE of Cc1cscc1-c1nc2ncsc2cc1Br .
90

Need herbicidal effect VERPE, item Clc1cc2scnc2nc1-c1ccsc1Cl
90

Reported herbicidal effect VERPE for CCc1cc2scnc2nc1C12CCCCC1O2 (stereo not drawn) : what is it?
90

Given the molecule Cc1cc2scnc2nc1-c1ccsc1C , what is its reported herbicidal effect VERPE?
100

So what's the measured herbicidal effect VERPE for this one? Cc1cc2scnc2nc1-c1cccc(F)c1
90

# herbicidal effect VERPE lookup, item CCc1cc2scnc2nc1-c1ccccc1C
100

For the molecule Cc1cc2sc(S)nc2nc1-c1ccccc1F , what herbicidal effect VERPE is on record?
90

Any idea what its herbicidal effect VERPE is? The molecule is COc1ccccc1-c1nc2ncsc2cc1C
100

* * *

For each of the molecules below, state its herbicidal effect AMARE.
# System: Amaranthus retroflexus (AMARE)
# measurement_protocol: Herbicidal post-emergence action (D), 320 g/ha
# Format: in vivo
# test_parameters: ca. 3 weeks
Value and unit, in that order.

Any idea what herbicidal effect AMARE was measured for Cc1ccccc1-c1nc2ncsc2cc1C [Example I-018] ?
90%

Recorded herbicidal effect AMARE of CCc1cc2scnc2nc1-c1ccccc1C [Example I-093] , please.
90%

Which herbicidal effect AMARE is reported for this molecule? Cc1cc2scnc2nc1C12CCCCC1O2 (stereo not shown) [Example I-151]
80%

Which herbicidal effect AMARE reading was recorded for the molecule Cc1cc2scnc2nc1-c1ccccc1Cl [Example I-045] ?
100%

What does the record list as herbicidal effect AMARE for C=Cc1cc2scnc2nc1-c1ccccc1F [Example I-072] ?
80%

Fill in: herbicidal effect AMARE of c1ccc(-c2ccc3scnc3n2)cc1 [Example I-010] is ___
80%

Find the recorded herbicidal effect AMARE belonging to CC(C)c1cc2scnc2nc1-c1ccccc1F [Example I-184] and report it.
80%

Fill in: herbicidal effect AMARE of Cc1cc2scnc2nc1-c1ccsc1C [Example I-194] is ___
80%

Which measured herbicidal effect AMARE value corresponds to Clc1cc2scnc2nc1-c1ccsc1Cl [Example I-190] ?
80%

Please look up its herbicidal effect AMARE: Cc1cc2scnc2nc1-c1sccc1Cl [Example I-137]
90%

Field request: herbicidal effect AMARE | item: Cc1cc2scnc2nc1-c1cccc(F)c1 [Example I-003]
80%

Can you share its herbicidal effect AMARE? I mean this molecule: Fc1ccccc1-c1nc2ncsc2cc1Cl [Example I-017]
100%

I would be grateful if you could share the reported herbicidal effect AMARE for Cc1cc2scnc2nc1-c1sccc1C [Example I-143] .
80%

Consider the molecule Cc1cccc(F)c1-c1nc2ncsc2cc1Cl [Example I-013] and give its measured herbicidal effect AMARE.
80%

Dear colleague, I am looking for the recorded herbicidal effect AMARE of the following molecule: Cc1cscc1-c1nc2ncsc2cc1C [Example I-193]
80%

For the molecule CCc1cc2scnc2nc1-c1ccccc1 [Example I-051] , what herbicidal effect AMARE is on record?
90%

Given the entry Fc1ccccc1-c1nc2ncsc2cc1I [Example I-188] , report its measured herbicidal effect AMARE.
90%

Endpoint output: herbicidal effect AMARE of CCc1cc2scnc2nc1-c1ccccc1F [Example I-023] . Value?
100%

Sample Cc1cc2scnc2nc1-c1ccc(F)cc1F [Example I-122] — what was its herbicidal effect AMARE?
80%

Suppose we examine the molecule Cc1cc2scnc2nc1-c1ccccc1 [Example I-041] ; what herbicidal effect AMARE value has been reported?
90%

Find the recorded herbicidal effect AMARE belonging to Fc1ccccc1-c1nc2ncsc2cc1Br [Example I-012] and report it.
90%

Look up herbicidal effect AMARE: Fc1cccc(-c2nc3ncsc3cc2Cl)c1 [Example I-068]
90%

# lookup: herbicidal effect AMARE of Fc1ccccc1-c1nc2ncsc2cc1C1CC1 [Example I-102]
80%

Which herbicidal effect AMARE is listed for Cc1cc2scnc2nc1-c1ccccc1F [Example I-002] ?
90%

Would you kindly share the measured herbicidal effect AMARE for Clc1ccccc1-c1nc2ncsc2cc1Cl [Example I-069] ?
80%

* * *

# Test system: Stellaria media (STEME)
# measurement_protocol: Herbicidal post-emergence action (B), 1280 g/ha
# Format: in vivo
Provide the recorded herbicidal effect STEME for the entries that follow.
Numeric only. Scale: %

For the molecule shown here, Cc1ccsc1-c1nc2ncsc2cc1Br , give the reported herbicidal effect STEME.
100

What does the record list as herbicidal effect STEME for C=Cc1cc2scnc2nc1-c1ccccc1F ?
90

Sample Cc1cccc(F)c1-c1nc2ncsc2cc1Cl — what was its herbicidal effect STEME?
100

Quick check: herbicidal effect STEME of CCc1cc2scnc2nc1C1=CCCCC1 ?
100

Dear colleague, I am looking for the recorded herbicidal effect STEME of the following molecule: CCc1cc2scnc2nc1-c1ccccc1C
100

For the molecule shown here, Fc1ccccc1-c1nc2ncsc2cc1Cl , give the reported herbicidal effect STEME.
100

Can you share its herbicidal effect STEME? I mean this molecule: Fc1ccccc1-c1nc2nc(Cl)sc2cc1Br
100

Any idea what its herbicidal effect STEME is? The molecule is Cc1nc2nc(-c3ccc(F)cc3)c(C)cc2s1
90

Reported herbicidal effect STEME for Cc1cc2scnc2nc1C12CCCCC1O2 (centres unmarked) : what is it?
100

GET /values?readout=herbicidal effect STEME&item= Fc1ccccc1-c1nc2ncsc2cc1I
90

What herbicidal effect STEME value was documented for this molecule, Cc1cc2scnc2nc1-c1sccc1C ?
100

Param item = Cc1cc2scnc2nc1-c1ccc(F)cc1F ; retrieve measured herbicidal effect STEME.
100

// lookup herbicidal effect STEME for CCc1cc2scnc2nc1-c1ccccc1OC
90

May I ask what herbicidal effect STEME has been recorded for Fc1ccccc1-c1ccc2scnc2n1 ?
100

Would you mind telling me what herbicidal effect STEME value was observed for COc1ccccc1-c1nc2ncsc2cc1C ?
100

Requested read-out: herbicidal effect STEME. Entry: Clc1cc2scnc2nc1-c1ccsc1
90

Fill blank: measured herbicidal effect STEME of the molecule CCc1cc2scnc2nc1-c1cccc(F)c1 is ____.
100

Need herbicidal effect STEME, item Fc1ccc(-c2ccc3scnc3n2)cc1
90

Tell me the measured herbicidal effect STEME of Cc1nc2nc(-c3ccccc3F)ccc2s1 , please.
90

Consider the molecule shown here: Cc1ccccc1-c1nc2ncsc2cc1Cl What is its recorded herbicidal effect STEME?
100

Which herbicidal effect STEME is listed for Cc1cc2scnc2nc1-c1ccccc1C(F)(F)F ?
100

Can you share its herbicidal effect STEME? I mean this molecule: Cc1cc2sc([S+](C)[O-])nc2nc1-c1cccc(F)c1 (centres unmarked)
90

Using the record for Cc1cc2scnc2nc1-c1ccccc1Cl , report its herbicidal effect STEME.
100

Form field: reported herbicidal effect STEME of Cc1ccsc1-c1nc2ncsc2cc1Cl
90

Record request: herbicidal effect STEME value, item c1ccc(-c2ccc3scnc3n2)cc1
100

Quick one: herbicidal effect STEME for Cc1ccccc1-c1ccc2scnc2n1 ?
100

// query herbicidal effect STEME value for entry Cc1cccc(F)c1-c1nc2ncsc2cc1Br
100

herbicidal effect STEME for CCc1cc2scnc2nc1-c1ccc(F)cc1F ?
90

Name the reported herbicidal effect STEME value associated with the molecule Cc1scc(-c2ccc3scnc3n2)c1C
90

Which value of herbicidal effect STEME has been reported for Cc1cscc1-c1nc2ncsc2cc1C in the records?
90

What value of herbicidal effect STEME has been reported for the following molecule? COc1ccccc1-c1nc2nc(SC)sc2cc1C
100

Name the recorded herbicidal effect STEME for Cc1cc2scnc2nc1-c1ccsc1C .
100

What herbicidal effect STEME value was documented for this molecule, Clc1cc2scnc2nc1-c1sccc1Cl ?
90

Record request: herbicidal effect STEME value, item Clc1cc2scnc2nc1-c1ccsc1Cl
90

Report herbicidal effect STEME for Clc1ccccc1-c1nc2ncsc2cc1Cl please.
100

Item CCc1cc2sc(OC)nc2nc1-c1ccccc1OC has what recorded herbicidal effect STEME?
100

Quick one: herbicidal effect STEME of Cc1cc2scnc2nc1-c1ccccc1 ?
100

Name the reported herbicidal effect STEME value associated with the molecule Cc1cc2scnc2nc1-c1sccc1Cl
100

These measurements were taken from patent US20230151025A1.
